# test summary: PBS stability assay at 37 °C via LC-MS/MS
# Format: physicochemical
# test context: phosphate-buffered saline (DPBS), pH 7.03, PBS, 37 °C, 3 µM, LC-MS/MS; read-out: t1/2 in PBS at 37 °C (Tables S14-S17) (converted)
We begin with a simple list: items and their reported half-life at 3 µM.
Report only the number, with the unit h understood.

Worked set:
* C/C(=N\OC(=O)N(C)C[C@@H]1CC2(CC2)CN1)[C@H]1CC[C@H]2[C@@H]3CCC4=CC(=O)CC[C@]4(C)[C@H]3CC[C@]12C [20q] | 0.7
* C/C(=N\OC(=O)N(CCO)CCNCCO)[C@H]1CC[C@H]2[C@@H]3CCC4=CC(=O)CC[C@]4(C)[C@H]3CC[C@]12C.Cl [20z] | 6.27
* CNCCN(C(=O)O/N=C(\C)[C@H]1CC[C@H]2[C@@H]3CCC4=CC(=O)CC[C@]4(C)[C@H]3CC[C@]12C)C1CCC1.O=C(O)C(F)(F)F [20d] | 2.32
* C/C(=N\OC(=O)N(C)C[C@@H]1C[C@H](N(C)C)CN1)[C@H]1CC[C@H]2[C@@H]3CCC4=CC(=O)CC[C@]4(C)[C@H]3CC[C@]12C [20u] | 1.08
* CNCCN(CCCN1CCOCC1)C(=O)O/N=C(\C)[C@H]1CC[C@H]2[C@@H]3CCC4=CC(=O)CC[C@]4(C)[C@H]3CC[C@]12C.O=C(O)C(F)(F)F [20i] | 5.45

Here's the next entry for you.
Query CNCCN(C(=O)O/N=C(\C)[C@H]1CC[C@H]2[C@@H]3CCC4=CC(=O)CC[C@]4(C)[C@H]3CC[C@]12C)C1CC1.O=C(O)C(F)(F)F [20b] yields half-life at 3 µM of 4.5

###

# test summary: Stability in acetate buffer pH 5.0 at room temperature via HPLC (UV)
# Assay type: physicochemical
# test context: pH 5, acetate buffer pH 5.0, RT, 1 mg/mL, HPLC 254 nm, read-out: t1/2 in acetate buffer at RT (Tables S5-S8) (converted)
# Procedure: Stability studies were conducted in PBS and acetate buffer utilizing high performance liquid chromatography for potential drug storage considerations. […] min), precipitates observed in sample solutions were filtered with a PTFE syringe filter prior to analysis. Immediately after sample preparation, injection by the HPLC autosampler was performed, which was recorded as the initial time point (t = 0 min). […] Pseudo first-order half-lives were then calculated by the following equation: t1/2 = 0.693/k.
We begin with a simple list: items and their reported half-life at 1 mg/mL.

Worked set:
- CNCCN(CC(C)C)C(=O)O/N=C(\C)[C@H]1CC[C@H]2[C@@H]3CCC4=CC(=O)CC[C@]4(C)[C@H]3CC[C@]12C.O=C(O)C(F)(F)F [20f]: > 168 h
- CNCCN(CCN1CCCC1)C(=O)O/N=C(\C)[C@H]1CC[C@H]2[C@@H]3CCC4=CC(=O)CC[C@]4(C)[C@H]3CC[C@]12C.O=C(O)C(F)(F)F [20h]: 105 h
- CNCCN(CCn1ccnc1)C(=O)O/N=C(\C)[C@H]1CC[C@H]2[C@@H]3CCC4=CC(=O)CC[C@]4(C)[C@H]3CC[C@]12C [20k]: > 168 h
- C/C(=N\OC(=O)N(C)C[C@H]1CCCN1)[C@H]1CC[C@H]2[C@@H]3CCC4=CC(=O)CC[C@]4(C)[C@H]3CC[C@]12C.O=C(O)C(F)(F)F [20m]: > 168 h
- C/C(=N\OC(=O)N(CCO)CCNCCO)[C@H]1CC[C@H]2[C@@H]3CCC4=CC(=O)CC[C@]4(C)[C@H]3CC[C@]12C.Cl [20z]: > 168 h

Here's the next entry for you.
Query CNCCN(C(=O)O/N=C(\C)[C@H]1CC[C@H]2[C@@H]3CCC4=CC(=O)CC[C@]4(C)[C@H]3CC[C@]12C)C1CC1.O=C(O)C(F)(F)F [20b] yields half-life at 1 mg/mL of > 168 h
